The reader will find reported Cumulative biogas production values listed item by item below.
Tested on: "in vitro" rumen fluid culture
assay procedure: Biogas production in "in vitro" rumen fluid culture (pressure meter)
Type: cell-based, calves
Design: unit not given here
run parameters: Exp 1; 48 h incubation

mol | Cumulative biogas production
COc1ccc([C@@H]2CC(=O)c3c(O)cc(O[C@@H]4O[C@H](CO)[C@@H](O)[C@H](O)[C@H]4O[C@@H]4O[C@@H](C)[C@H](O)[C@@H](O)[C@H]4O)cc3O2)cc1O | 253.99
C[C@@H]1O[C@@H](OC[C@H]2O[C@@H](Oc3cc(O)c4c(c3)O[C@H](c3ccc(O)cc3)CC4=O)[C@H](O)[C@@H](O)[C@@H]2O)[C@H](O)[C@H](O)[C@H]1O | 258.85
COc1ccc([C@@H]2CC(=O)c3c(O)cc(O[C@@H]4O[C@H](CO)[C@@H](O)[C@H](O)[C@H]4O[C@@H]4O[C@@H](C)[C@H](O)[C@@H](O)[C@H]4O)cc3O2)cc1 | 262.00
